biological target: ZFAND5 (UniProt O76080); test: log2 fold change, soluble protein after heating vs DMSO (PISA); higher = thermal stabilisation; K562 cells, 10 uM, 30 min; active = over 0.2 and 3.5 SD of the protein, either way, in both replicates (recomputed)
Sequence (O76080 whole entry, looked up): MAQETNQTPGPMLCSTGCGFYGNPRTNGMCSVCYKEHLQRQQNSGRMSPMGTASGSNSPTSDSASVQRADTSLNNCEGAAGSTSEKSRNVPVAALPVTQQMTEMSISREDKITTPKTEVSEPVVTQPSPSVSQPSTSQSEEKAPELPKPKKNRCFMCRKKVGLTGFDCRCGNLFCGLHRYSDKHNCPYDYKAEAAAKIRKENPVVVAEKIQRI
Of roughly 7,900 targets only a part is listed; those with a hit were picked by preference. About 0.6% of all pairs of compound and target were hits.
Outcomes: active, inactive

{"chemical-string": "C[C@@H](N)c1ccc(C(=O)Nc2ccnc3[nH]ccc23)cc1", "class": "inactive"}
{"chemical-string": "NC1(Cc2ccc(Cl)cc2)CCN(c2ncnc3[nH]ccc23)CC1", "class": "inactive"}
{"chemical-string": "Cc1cccc(-c2[nH]c(C(C)(C)C)nc2-c2ccc3nccnc3c2)n1", "class": "inactive"}
{"chemical-string": "CN1CCc2c(c3ccccc3n2Cc2ccc(C(=O)NO)cc2)C1", "class": "active"}

* * *

log2 fold change listing for selected compounds.
molecular target: ZBTB43 (UniProt O43298); experiment: log2 fold change, soluble protein after heating vs DMSO (PISA); higher = thermal stabilisation; K562 cells, 10 uM, 30 min; active = over 0.2 and 3.5 SD of the protein, either way, in both replicates (recomputed)
Sequence (O43298 whole entry, looked up): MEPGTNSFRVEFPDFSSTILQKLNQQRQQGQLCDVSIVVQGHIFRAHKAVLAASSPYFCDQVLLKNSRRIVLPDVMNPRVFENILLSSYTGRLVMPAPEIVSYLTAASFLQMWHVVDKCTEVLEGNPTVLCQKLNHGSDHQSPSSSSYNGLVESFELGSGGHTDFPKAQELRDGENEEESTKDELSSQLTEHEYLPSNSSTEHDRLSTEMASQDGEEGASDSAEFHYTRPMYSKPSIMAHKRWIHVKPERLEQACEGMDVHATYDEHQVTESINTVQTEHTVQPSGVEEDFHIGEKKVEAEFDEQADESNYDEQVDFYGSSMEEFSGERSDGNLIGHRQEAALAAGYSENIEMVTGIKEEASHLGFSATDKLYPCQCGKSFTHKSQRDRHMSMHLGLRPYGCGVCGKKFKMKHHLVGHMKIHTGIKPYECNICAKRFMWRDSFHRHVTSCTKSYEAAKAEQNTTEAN
Of roughly 7,900 targets only a part is listed; those with a hit were picked by preference. About 0.6% of all pairs of compound and target were hits.

{"chemical-string": "Cc1cc(Nc2cc(CN3CCOCC3)c3nc(C)c(Cc4ccc(Cl)cc4F)n3n2)n[nH]1", "log2 fold change": 0.043}
{"chemical-string": "Cc1ncc(-c2ccnc(Nc3ccc(S(C)(=O)=O)cc3)n2)n1C(C)C", "log2 fold change": 0.16}
{"chemical-string": "O=C(Nc1nc2ccccc2n1CCN1CCOCC1)c1cccc([N+](=O)[O-])c1", "log2 fold change": -0.043}
{"chemical-string": "O=C1NC(=NCc2cccs2)S/C1=C\\c1ccc2ncccc2c1", "log2 fold change": -0.081}

* * *

log2 fold change listing for selected compounds.
target: ZDHHC17 (UniProt Q8IUH5); experiment: log2 fold change, soluble protein after heating vs DMSO (PISA); higher = thermal stabilisation; K562 cells, 10 uM, 30 min; active = over 0.2 and 3.5 SD of the protein, either way, in both replicates (recomputed)
Sequence (Q8IUH5 whole entry, looked up): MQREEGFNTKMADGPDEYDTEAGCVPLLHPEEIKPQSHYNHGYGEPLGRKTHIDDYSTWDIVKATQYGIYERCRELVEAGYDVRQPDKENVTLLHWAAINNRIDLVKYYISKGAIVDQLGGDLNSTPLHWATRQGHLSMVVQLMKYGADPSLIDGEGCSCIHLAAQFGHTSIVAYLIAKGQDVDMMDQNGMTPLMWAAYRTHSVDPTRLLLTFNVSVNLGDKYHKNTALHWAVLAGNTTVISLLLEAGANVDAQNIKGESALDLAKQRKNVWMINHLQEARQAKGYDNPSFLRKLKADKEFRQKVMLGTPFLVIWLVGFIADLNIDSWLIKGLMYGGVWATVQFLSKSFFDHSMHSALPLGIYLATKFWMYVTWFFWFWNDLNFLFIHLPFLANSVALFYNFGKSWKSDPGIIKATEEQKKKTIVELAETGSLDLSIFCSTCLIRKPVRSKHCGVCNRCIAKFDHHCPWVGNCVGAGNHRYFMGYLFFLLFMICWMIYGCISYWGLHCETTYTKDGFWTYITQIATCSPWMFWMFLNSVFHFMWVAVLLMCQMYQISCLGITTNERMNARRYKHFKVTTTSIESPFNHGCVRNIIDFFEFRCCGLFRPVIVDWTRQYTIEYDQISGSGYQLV
Targets with a hit are over-represented here; the source holds about 7,900 in all. About 0.6% of all pairs of compound and target were hits.
measured-attribute: log2 fold change

{"chemical-string": "Cc1ccc(-n2nc(C(C)(C)C)cc2NC(=O)Nc2ccc(OCCN3CCOCC3)c3ccccc23)cc1", "readout-value": 0.264}
{"chemical-string": "Cn1cc(-c2ccc3c(c2)CCN3C(=O)Cc2cccc(C(F)(F)F)c2)c2c(N)ncnc21", "readout-value": 0.018}
{"chemical-string": "NC(=O)Nc1cc(-c2cccc(F)c2)sc1C(=O)N[C@H]1CCCNC1", "readout-value": 0.084}
{"chemical-string": "Cc1cccc(CC(=O)N2CCc3c2ccc(-c2cn(C)c4ncnc(N)c24)c3F)n1", "readout-value": -0.082}
{"chemical-string": "Cn1cncc1[C@@](N)(c1ccc(Cl)cc1)c1ccc2c(c1)c(-c1cccc(Cl)c1)cc(=O)n2C", "readout-value": 0.032}
{"chemical-string": "CNC(=O)c1ccccc1Nc1nc(Nc2ccc(N3CCOCC3)cc2OC)ncc1Cl", "readout-value": 0.146}
{"chemical-string": "CC(C)N(C[C@H]1O[C@@H](n2cnc3c(N)ncnc32)[C@H](O)[C@@H]1O)[C@H]1C[C@@H](CCc2nc3cc(C(C)(C)C)ccc3[nH]2)C1", "readout-value": 0.053}
{"chemical-string": "CC(C)(C)Cn1c(N)nc2ccc(-c3[nH]c(C(C)(C)C)nc3-c3ccc(F)cc3)nc21", "readout-value": -0.099}
{"chemical-string": "CCCS(=O)(=O)Nc1ccc(F)c(C(=O)c2c[nH]c3ncc(-c4ccc(Cl)cc4)cc23)c1F", "readout-value": 0.016}
{"chemical-string": "CS(=O)(=O)N1CCN(Cc2cc3nc(-c4cccc5[nH]ncc45)nc(N4CCOCC4)c3s2)CC1", "readout-value": 0.021}
{"chemical-string": "O=C(CCCCCCC(=O)Nc1ccccc1)NO", "readout-value": -0.079}
{"chemical-string": "NC(=O)c1ccc2nc(-c3ccc(Oc4ccc(Cl)cc4)cc3)[nH]c2c1", "readout-value": -0.046}
{"chemical-string": "CC[C@@H]1C(=O)N(C)c2cnc(Nc3ccc(C(=O)NC4CCN(C)CC4)cc3OC)nc2N1C1CCCC1", "readout-value": -0.009}
{"chemical-string": "CON(C)C(=O)N1N=C(c2cc(F)ccc2F)S[C@@]1(CCCN)c1ccccc1", "readout-value": -0.219}
{"chemical-string": "Cc1ncc(-c2ccnc(Nc3ccc(S(C)(=O)=O)cc3)n2)n1C(C)C", "readout-value": -0.022}
{"chemical-string": "COc1cc2nc(-c3cc(F)ccc3O)nc(N[C@@H]3CNC[C@H]3C(C)(C)O)c2cc1OC", "readout-value": 0.029}
{"chemical-string": "CCn1c(C(=O)N(C2CC2)C2CC2)cc2c3c(ncn3C)c(Nc3cc(C)n(C)n3)nc21", "readout-value": -0.061}
